- test method notes: self-splicing fitness, log relative to wild type (ln ratio); higher = more splicing; Tetrahymena group I intron in knt gene, E. coli kanamycin selection, DiMSum; sequences stand for … in CUCUCU…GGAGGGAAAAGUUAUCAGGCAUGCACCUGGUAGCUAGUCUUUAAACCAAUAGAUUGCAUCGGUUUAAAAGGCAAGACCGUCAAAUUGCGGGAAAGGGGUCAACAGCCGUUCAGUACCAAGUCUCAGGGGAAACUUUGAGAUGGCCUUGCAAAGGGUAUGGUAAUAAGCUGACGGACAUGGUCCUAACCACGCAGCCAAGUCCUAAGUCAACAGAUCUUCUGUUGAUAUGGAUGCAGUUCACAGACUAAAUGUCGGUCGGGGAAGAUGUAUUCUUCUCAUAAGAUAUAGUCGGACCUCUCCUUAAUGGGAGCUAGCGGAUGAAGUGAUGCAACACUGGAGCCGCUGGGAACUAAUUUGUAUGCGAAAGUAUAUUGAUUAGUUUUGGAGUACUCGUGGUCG;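 also: selection with 25 µg/mL kanamycin versus none on LB agar overnight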
- conditions: 30 °C
Task for the reader: assign each of the following sequences its reported self-splicing fitness (ln).
No unit in the answer, please; the number alone is enough.

### Prompt # self-splicing fitness (ln) lookup, item GGGGAGCAAUAUUACGUUGA
### Response -3.11

### Prompt Entry to check: ACUAAGCAAUAUUACGCUCU
### Response -0.0344

### Prompt And AACAAGCAAUAUUACGUCUC ?
### Response -3.51

### Prompt How about ACCCAGCAAUAUUACGAUGG ?
### Response -2.94

### Prompt Also need CAUUAGCAAUAUUACGUUUG , thanks.
### Response -2.16

### Prompt Now this one: AAGAAGCAAUAUUACGGGGU
### Response -4.04

### Prompt Okay, and GUGCAGCAAUAUUACGAGGA ?
### Response -3.01

### Prompt Also, CGGAAGCAAUAUUACGCCAA please.
### Response -2.25

### Prompt Next sequence: GCUAAGCAAUAUUACGUAAC
### Response -1.39

### Prompt And what about the sequence UUUGAGCAAUAUUACGCGUC ?
### Response -2.03

### Prompt Now consider UGACAGCAAUAUUACGGUCG .
### Response -3.56

### Prompt And then GUGCAGCAAUAUUACGGAGU , what is it?
### Response -3.05

### Prompt AAGCAGCAAUAUUACGCCUU ?
### Response -2.42

### Prompt Item: ACAGAGCAAUAUUACGCGGC
### Response -3.41

### Prompt Thanks! And GGACAGCAAUAUUACGUAUG ?
### Response -1.13

### Prompt Thanks! And ACAUAGCAAUAUUACGAACA ?
### Response 0.105

### Prompt Now this one: CAGGAGCAAUAUUACGGGGA
### Response -5.01

### Prompt Try this sequence too: CUCAAGCAAUAUUACGCAUG
### Response -4.22

### Prompt Next record, please: AGUAAGCAAUAUUACGCACC
### Response -0.949

### Prompt Same thing, different sequence: UUUUAGCAAUAUUACGUCUU
### Response -2.43

### Prompt Entry AAGCAGCAAUAUUACGAAUU please
### Response -0.851

### Prompt What do you get for UUGUAGCAAUAUUACGUGUU ?
### Response -2.7

### Prompt Another: CUGCAGCAAUAUUACGCGGA
### Response -2.29

### Prompt Also check UUAGAGCAAUAUUACGUUUU
### Response -3.39

### Prompt Another sequence to look at: CUUUAGCAAUAUUACGGUCU
### Response -3.25

### Prompt What about AAUAAGCAAUAUUACGUGGU ?
### Response -3.77

### Prompt Same for AAGUAGCAAUAUUACGUGGU
### Response -3.68

### Prompt What would you report for GUAAAGCAAUAUUACGUCGC ?
### Response -1.35

### Prompt # iterate: ACUCAGCAAUAUUACGAGCA
### Response -0.632

### Prompt Now consider UACUAGCAAUAUUACGCGCA and answer again.
### Response -0.569

### Prompt Thanks! And CUUGAGCAAUAUUACGGUAG ?
### Response -2.88

### Prompt Ok, now CCAUAGCAAUAUUACGAUGU
### Response -3.94

### Prompt Continue with AUAGAGCAAUAUUACGAAUA
### Response -4.03

### Prompt Entry GAAUAGCAAUAUUACGGUGC please
### Response -2.18

### Prompt Subsequent entry: AGCAAGCAAUAUUACGAUGA
### Response -1.33

### Prompt Likewise for AGGGAGCAAUAUUACGCUCA ?
### Response -1.16

### Prompt Subsequent entry: UAGAAGCAAUAUUACGCCGU
### Response -2.41

### Prompt Let us now turn to GACGAGCAAUAUUACGUUCA
### Response -1.67

### Prompt Moving on to CAGCAGCAAUAUUACGUAAC
### Response -4.17

* * *

I'd be grateful if you could share measured self-splicing fitness (ln) for these entries.
- test method notes: self-splicing fitness, log relative to wild type (ln ratio); higher = more splicing; Tetrahymena group I intron in knt gene, E. coli kanamycin selection, DiMSum; sequences stand for … in CUCUCU…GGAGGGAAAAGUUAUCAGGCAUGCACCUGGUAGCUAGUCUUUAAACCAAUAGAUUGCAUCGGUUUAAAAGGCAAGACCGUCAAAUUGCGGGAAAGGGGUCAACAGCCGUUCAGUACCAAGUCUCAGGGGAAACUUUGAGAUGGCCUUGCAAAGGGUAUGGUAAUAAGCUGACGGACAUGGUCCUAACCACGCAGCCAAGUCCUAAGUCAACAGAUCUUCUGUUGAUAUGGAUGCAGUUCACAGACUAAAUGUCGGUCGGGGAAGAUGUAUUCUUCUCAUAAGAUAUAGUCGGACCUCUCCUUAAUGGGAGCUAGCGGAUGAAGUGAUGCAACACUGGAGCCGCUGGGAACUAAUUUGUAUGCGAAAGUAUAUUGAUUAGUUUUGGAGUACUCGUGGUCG
- conditions: 30 °C
When you answer, write just the number.

### Prompt If you can, please state the reported self-splicing fitness (ln) value of CUAUAGCAAUAUUACGGUGG .
### Response -3.27

### Prompt Entry CGCAAGCAAUAUUACGCUUU please
### Response -3.44

### Prompt Then what about the sequence ACACAGCAAUAUUACGAUCG ?
### Response -0.738

### Prompt Please do the same for UGGGAGCAAUAUUACGCUUA as well.
### Response -2.55

### Prompt Also need AGGCAGCAAUAUUACGGGCC , thanks.
### Response -2.17

### Prompt Follow-up item: AUAAAGCAAUAUUACGAUUC
### Response -0.837

### Prompt Please give the result for UCCGAGCAAUAUUACGUACU too.
### Response -3.69

### Prompt Next sequence up: GGCAAGCAAUAUUACGGACU
### Response 0.0032

### Prompt Entry ACGCAGCAAUAUUACGGCAA please
### Response -0.804

### Prompt Param item: CGUUAGCAAUAUUACGCGGA
### Response -2.82

### Prompt Similarly, GAGAAGCAAUAUUACGACGG ?
### Response -3.47

### Prompt Next: CCGCAGCAAUAUUACGAUUU
### Response -3.28

### Prompt Proceed to CCUUAGCAAUAUUACGCUUG
### Response -3.86

### Prompt Proceed to GGUCAGCAAUAUUACGAGUA
### Response -2.09

### Prompt Then CGCUAGCAAUAUUACGGGUU ?
### Response -2.73

### Prompt Then this sequence: UUAAAGCAAUAUUACGCAUU
### Response -2.76

### Prompt Likewise for AGUUAGCAAUAUUACGCAAC ?
### Response -2.75

### Prompt Next sequence up: GAUAAGCAAUAUUACGGCCA
### Response -1.15

### Prompt Similarly, GAAGAGCAAUAUUACGGGGA ?
### Response -2.93

### Prompt Quick one: GUUCAGCAAUAUUACGUGUA
### Response -0.88

### Prompt Let us now turn to GCCGAGCAAUAUUACGCGAA
### Response -1.84

### Prompt Same read-out for UUCCAGCAAUAUUACGAAUA ?
### Response -1.24

### Prompt Proceed to AAGGAGCAAUAUUACGCAAA
### Response -3.1

### Prompt Now consider AUGAAGCAAUAUUACGCACU and answer again.
### Response 0.079

### Prompt Another sequence to check: GUGGAGCAAUAUUACGUUUG
### Response -3.31
